# System: Heterodera zeae
# TEST_PROTOCOL: Nematicidal activity against Heterodera zeae infective stage larvae assessed as nematode mortality at 0.5% under light conditions measured 48 hr post dose by stereoscopic microscopy
# Format: functional
# mortality per entry
ENDPOINT_NAME: mortality (%)

compound=COc1ccc(C(=O)O)cc1OC result_unit=% meas_value=80
compound="CCCCCCCC/C=C\\CCCCCCCC(=O)OC [METHYL OLEATE]" result_unit=% meas_value=100
compound=COc1c(O)cc2oc(-c3ccc(O)c(O)c3)c(O)c(=O)c2c1O result_unit=% meas_value=20
compound=CCCCCCCCCCCCCCCCO result_unit=% meas_value=80
compound=O=C(O)c1ccc(O)c(O)c1 result_unit=% meas_value=100

---

mortality values for the molecules below.
# System: Heterodera zeae
# TEST_PROTOCOL: Nematicidal activity against Heterodera zeae infective stage larvae assessed as nematode mortality at 0.125% under dark conditions measured 72 hr post dose by stereoscopic microscopy
# Type: functional
ENDPOINT_NAME: mortality (%)

smiles_data=COc1ccc(C(=O)O)cc1OC target_system="Heterodera zeae" endpoint_name=mortality meas_value=50
smiles_data=O=C(O)c1ccc(O)cc1 target_system="Heterodera zeae" endpoint_name=mortality meas_value=40
smiles_data=CCCCCCCCCCCCCCCCCC(=O)O target_system="Heterodera zeae" endpoint_name=mortality meas_value=70
smiles_data=O=c1c(O)c(-c2ccc(O)c(O)c2)oc2cc(O)cc(O)c12 target_system="Heterodera zeae" endpoint_name=mortality meas_value=40
smiles_data=CCCCCCCCCCCCCC(=O)O target_system="Heterodera zeae" endpoint_name=mortality meas_value=50

---

# System: Heterodera zeae
# TEST_PROTOCOL: Nematicidal activity against Heterodera zeae infective stage larvae assessed as nematode mortality at 0.5% under light conditions measured 5 to 60 min post dose by stereoscopic microscopy
# Type: functional, organism-based
The source made the active and inactive calls. The rule behind the calls is not given here.
ENDPOINT_NAME: Activity

compound="CCCCCCCC/C=C\\CCCCCCCC(=O)OC [METHYL OLEATE]" target_system="Heterodera zeae" meas_value=inactive
compound=c1csc(-c2ccc(-c3cccs3)s2)c1 target_system="Heterodera zeae" meas_value=inactive
compound="COC(=O)c1ccc(O)c(O)c1 [METHYL PROTOCATECHUATE]" target_system="Heterodera zeae" meas_value=inactive
compound=O=C(O)c1ccccc1 target_system="Heterodera zeae" meas_value=inactive
compound=C[C@@H]1O[C@@H](OC[C@H]2O[C@@H](Oc3c(-c4ccc(O)c(O)c4)oc4cc(O)cc(O)c4c3=O)[C@H](O)[C@@H](O)[C@@H]2O)[C@H](O)[C@H](O)[C@H]1O target_system="Heterodera zeae" meas_value=inactive

---

# System: Heterodera zeae
# TEST_PROTOCOL: Nematicidal activity against Heterodera zeae infective stage larvae assessed as nematode mortality at 0.5% under light conditions measured 24 hr post dose by stereoscopic microscopy
# Assay type: functional
Sorting guide: entries reporting mortality beneath 50% go in the fulfilled pile, the rest go in the not fulfilled pile.

smiles_data=COc1ccc(C(=O)O)cc1 label_class=fulfilled
smiles_data=COc1c(O)cc2oc(-c3ccc(O)c(O)c3)c(O)c(=O)c2c1O label_class=fulfilled
smiles_data=CCCCCCCCCCCCCC(=O)O label_class=fulfilled
smiles_data=CCCCC/C=C\C/C=C\CCCCCCCC(=O)O label_class="not fulfilled"
smiles_data=c1csc(-c2ccc(-c3cccs3)s2)c1 label_class="not fulfilled"
smiles_data=COc1cc(C(=O)O)cc(OC)c1OC label_class="not fulfilled"
smiles_data=CCCCCCCCCCCCCCCC(=O)O label_class=fulfilled
smiles_data=CCCCCCCCCCCCCCCCO label_class="not fulfilled"
